Item-by-item account of IC50
assaySystem: human ROCK1 (Homo sapiens, UniProt Q13464)
Sequence (Q13464 1-727): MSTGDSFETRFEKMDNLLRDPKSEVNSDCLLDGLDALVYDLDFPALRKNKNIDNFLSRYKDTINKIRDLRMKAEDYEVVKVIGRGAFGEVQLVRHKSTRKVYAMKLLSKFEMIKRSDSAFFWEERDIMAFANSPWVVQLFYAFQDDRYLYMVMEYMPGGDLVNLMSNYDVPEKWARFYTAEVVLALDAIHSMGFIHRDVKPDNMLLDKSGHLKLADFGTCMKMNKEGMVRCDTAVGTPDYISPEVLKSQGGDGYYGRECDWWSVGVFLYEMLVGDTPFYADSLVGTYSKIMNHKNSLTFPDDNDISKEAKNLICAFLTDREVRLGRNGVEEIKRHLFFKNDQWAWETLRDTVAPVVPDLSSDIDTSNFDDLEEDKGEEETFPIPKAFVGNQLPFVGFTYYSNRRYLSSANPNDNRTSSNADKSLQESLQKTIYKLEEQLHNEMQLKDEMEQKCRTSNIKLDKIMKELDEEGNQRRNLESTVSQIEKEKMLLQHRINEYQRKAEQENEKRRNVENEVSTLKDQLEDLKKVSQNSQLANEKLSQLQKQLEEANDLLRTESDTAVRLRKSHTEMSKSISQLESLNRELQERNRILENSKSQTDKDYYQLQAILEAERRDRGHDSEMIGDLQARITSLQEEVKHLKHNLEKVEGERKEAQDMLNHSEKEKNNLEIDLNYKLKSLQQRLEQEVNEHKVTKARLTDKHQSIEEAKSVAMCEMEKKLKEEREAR

Below: 8 compounds and their reported IC50.
smilesstr=C=Cc1cncc2cccc(S(=O)(=O)N3CC[C@H](N)C3)c12 attributemeasured=IC50 result="< 1000 nM"
smilesstr=N[C@@H]1CCN(S(=O)(=O)c2cccc3cncc(Br)c23)C1 attributemeasured=IC50 result="< 1000 nM"
smilesstr=CN[C@H]1CCN(S(=O)(=O)c2cccc3cncc(Cl)c23)C1 attributemeasured=IC50 result="< 1000 nM"
smilesstr=O=S(=O)(c1cccc2cncc(Cl)c12)N1CC[C@H](NCc2cccs2)C1 attributemeasured=IC50 result="1000 to 3000 nM"
smilesstr=O=S(=O)(c1cccc2c(O)ncc(Cl)c12)N1CC[C@H](NC2CCOCC2)C1 attributemeasured=IC50 result="< 1000 nM"
smilesstr=O=S(=O)(c1cccc2cncc(Br)c12)N1CC[C@H](NCc2ccoc2)C1 attributemeasured=IC50 result="< 1000 nM"
smilesstr=O=S(=O)(c1cccc2cncc(Br)c12)N1CC[C@H](NCCc2ccccc2)C1 attributemeasured=IC50 result="< 1000 nM"
smilesstr=Cc1ccc(CN[C@H]2CCN(S(=O)(=O)c3cccc4cncc(C)c34)C2)cc1 attributemeasured=IC50 result="< 1000 nM"

Lab note: next compound to report on.
Request - read-out IC50 | tested on human ROCK1 (Homo sapiens, UniProt Q13464) | compound CCCN[C@H]1CCN(S(=O)(=O)c2cccc3cncc(C)c23)C1
< 1000 nM

Attribution: patent US7964613B2
